Catalogue of compounds with associated composite z-score
# SYSTEM_TESTED: Carbonic anhydrase 2 (Homo sapiens)
# PROTOCOL_TEXT: CAII small-molecule binders, profiling panel, biochemical, small-molecule microarray, Alexa647-labelled CAII (AID 1122)
# TEST_CONTEXT: CAII-A647 binding fluorescence, higher = more signal
// no unit string in output, number only

Before answering, review these 3 worked examples.
compound=[N-]=[N+]=NCc1ccccc1C[C@]1(C(=O)O)COC(c2ccc(OCCCO)cc2)=N1 reading=0.805
compound="CCCCN1CC=CC23O[C@@H]4C=CCOC(=O)[C@@H]4[C@H]2C(=O)N(C(CO)C(C)C)[C@@H]3C1=O (some centres undefined)" reading=0.321
compound=COC(=O)[C@@H]1N=C(c2ccc(OCCCO)cc2)O[C@@H]1c1ccccc1CN=[N+]=[N-] reading=0.552

Please examine the following record next.
Suppose we examine the compound C=C(/C(=C/C[C@H](OC(=O)c1ccncc1)c1ccccc1OCCO)c1cc(C(=O)OC)ccc1OC)C(C)C ; what composite z-score value has been reported?
0.453

* * *

# SYSTEM_TESTED: Albumin (Bos taurus)
# PROTOCOL_TEXT: bovine serum albumin binders on microarray, profiling panel, artefact control for SMM control protein annotation, biochemical, small-molecule microarray, Alexa647 label, 635/667 nm fluorescence (AID 1118);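 further: score merges 667 nm emission intensity and signal-to-noise per printed compound spot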
# TEST_CONTEXT: BSA-A647 binding, fluorescence 635 nm, higher = more signal
Param threshold (0.002) applies to composite z-score; output condition met when value >= threshold, condition not met when value < threshold.

Below, 4 compounds whose answers are already recorded.
compound=C=CCOC(=O)[C@@H]1[C@H]2C(=O)O[C@H](c3ccccc3)[C@H](c3ccccc3)N2[C@H](c2ccc(OCCOC(=O)[C@H]3C[C@H]4C(=O)NCC(=O)N4[C@H]3c3ccc(O)cc3)cc2)[C@@]12C(=O)Nc1ccc(I)cc12 system_tested="Albumin (Bos taurus)" group="condition not met"
compound=COCCOC(=O)N1C(=O)[C@@]2(c3cc(C#CCC(C(=O)OC)C(=O)OC)ccc31)[C@H](C(=O)N1CCc3cc(OC)c(OC)cc3C1)[C@H]1C(=O)O[C@H](c3ccccc3)[C@H](c3ccccc3)N1[C@@H]2c1ccc(O)cc1 system_tested="Albumin (Bos taurus)" group="condition not met"
compound=CCOC(=O)C[C@H]1[C@H](OC(=O)c2ccc(C(=O)c3ccccc3)cc2)[C@@H](NC(=O)c2ccc3ccccc3c2)c2cc(OCCCO)ccc2N1C(=O)c1ccc2ccccc2n1 system_tested="Albumin (Bos taurus)" group="condition met"
compound=COc1ccc([Si](C)(C)[C@H]2[C@H](CCn3cc([C@H](O)c4ccccc4)nn3)O[C@@]3(C(=O)N(c4ccccc4)c4ccccc43)[C@@H]2C)cc1 system_tested="Albumin (Bos taurus)" group="condition met"

Exam item: decide whether the reported composite z-score for COC(=O)[C@@]1(CCS(=O)(=O)c2ccccc2)N=C(c2ccc(OCCCO)cc2)O[C@H]1c1ccccc1N=[N+]=[N-] is at least 0.002.
condition met

Exam item: decide whether the reported composite z-score for C=C(C(=O)CC[C@@H](OC(C)=O)c1cccc(OCCO)c1)C(C)C is at least 0.002.
condition met

* * *

# SYSTEM_TESTED: Homeobox protein Hox-A13 (Mus musculus)
# PROTOCOL_TEXT: inhibitors of HoxA13-DNA binding, primary screen, biochemical, fluorescence polarization, labeled oligonucleotide (AID 1185)
# TEST_CONTEXT: 15 min, higher = more signal, called active from +8 up or from −8 down
Param threshold (-3) applies to z-score; output criterion met when value >= threshold, criterion not met when value < threshold.

Exam item: decide whether the reported z-score for CC(C)(C)OC(=O)CC[C@]1(C(=O)N2CCOCC2)N=C(c2ccc(OCCCO)cc2)O[C@H]1c1ccccc1CN=[N+]=[N-] is at least -3.
criterion not met

Exam item: decide whether the reported z-score for CCCC=C(CCC)[C@@H](NC(=O)c1ccco1)c1ccc(C(=O)OC)cc1 is at least -3.
criterion met

Exam item: decide whether the reported z-score for COCCCNC(=O)[C@@H]1c2ccccc2C(=O)N(Cc2cc(C(F)(F)F)cc(C(F)(F)F)c2)[C@H]1c1ccc(CO)cc1 is at least -3.
criterion not met

Exam item: decide whether the reported z-score for COCCOC(=O)N1C(=O)[C@@]2(c3cc(C#CC4(O)CCCCCC4)ccc31)[C@H](c1ccccc1OCCO)N1[C@H](c3ccccc3)[C@H](c3ccccc3)OC(=O)[C@H]1[C@@H]2C(=O)N1CCCCCCC1 is at least -3.
criterion met

Exam item: decide whether the reported z-score for CN(C)CCCNC(=O)[C@@H]1c2ccccc2C(=O)N(C2Cc3ccccc3C2)[C@H]1c1ccc(CO)cc1 is at least -3.
criterion met

Exam item: decide whether the reported z-score for COCCOC(=O)N1C(=O)[C@@]2(c3cc(C#CCC(C(=O)OC)C(=O)OC)ccc31)[C@H](C(=O)N1CCCCCCC1)[C@H]1C(=O)O[C@H](c3ccccc3)[C@H](c3ccccc3)N1[C@@H]2c1ccccc1OCCO is at least -3.
criterion met

Exam item: decide whether the reported z-score for COC(=O)[C@]1(CO)N=C(c2ccc(OCCCO)cc2)O[C@@H]1c1ccccc1CN=[N+]=[N-] is at least -3.
criterion not met

Exam item: decide whether the reported z-score for CN(C)CCCNC(=O)[C@@]1(Cc2ccccc2I)c2ccccc2C(=O)N(Cc2ccccc2)[C@H]1c1ccc(CO)cc1 is at least -3.
criterion met

Exam item: decide whether the reported z-score for C=CCOC(=O)[C@H]1[C@@H]2C(=O)O[C@@H](c3ccccc3)[C@@H](c3ccccc3)N2[C@@H](c2ccc(OCCOC(=O)[C@H]3C[C@H]4C(=O)NCC(=O)N4[C@H]3c3ccc(O)cc3)cc2)[C@]12C(=O)Nc1ccc(I)cc12 is at least -3.
criterion met

Exam item: decide whether the reported z-score for C=C(COC)/C(=C/C[C@@H](OC(C)=O)c1ccccc1OCCO)c1cc(C(=O)OC)ccc1OC is at least -3.
criterion not met

Exam item: decide whether the reported z-score for COc1ccc(NN2C(C(O)c3cc(C(F)(F)F)cc(C(F)(F)F)c3)C=CC3C(=O)N(C4CCCCC4)C(=O)C32)cc1 (stereo not drawn) is at least -3.
criterion not met

Exam item: decide whether the reported z-score for CC(=O)NCCCC[C@@H]1NC(=O)[C@H]2C[C@@H](C(=O)NCCCCCC[N+](C)(C)C)[C@@H](c3ccc(O)cc3)N2C1=O is at least -3.
criterion met

Exam item: decide whether the reported z-score for COCCOC(=O)N1C(=O)[C@@]2(c3ccccc31)[C@H](C(N)=O)[C@H]1C(=O)O[C@H](c3ccccc3)[C@H](c3ccccc3)N1[C@@H]2c1ccc(OCCO)cc1 is at least -3.
criterion not met

* * *

Catalogue of compounds with associated composite z-score
# SYSTEM_TESTED: Calmodulin-1 (Homo sapiens) (UniProt P0DP23)
# PROTOCOL_TEXT: CALM1 binders on microarrays, EGTA buffer, profiling panel, biochemical, small-molecule microarray, Cy5-labelled CALM1 (AID 1111);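 further: labelled calmodulin applied in Tris saline Tween buffer holding calcium plus EGTA and DTT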
# TEST_CONTEXT: Cy5-CALM1 binding fluorescence, higher = more signal
// no unit string in output, number only

structure_smiles_string=C=CCNC(=O)[C@@H]1[C@H]2C(=O)O[C@H](c3ccccc3)[C@H](c3ccccc3)N2[C@H](c2ccccc2OCCO)[C@@]12C(=O)N(C(=O)OCCOC)c1ccc(C#CCCO)cc12 result_type="composite z-score" reading=1.66
structure_smiles_string=C=CCN1C(=O)[C@]2(O[C@H](CCO)[C@@H]([Si](C)(C)c3ccc(OC)cc3)[C@@H]2C)c2ccccc21 result_type="composite z-score" reading=-0.0667

Please examine the following record next.
Suppose we examine the compound COCCOC(=O)N1C(=O)[C@@]2(c3cc(C#CCC(C(=O)OC)C(=O)OC)ccc31)[C@H](C(=O)N1CCCCCCC1)[C@H]1C(=O)O[C@H](c3ccccc3)[C@H](c3ccccc3)N1[C@@H]2c1ccccc1OCCO ; what composite z-score value has been reported?
2.56

* * *

Catalogue of compounds with associated composite Z-score
# PROTOCOL_TEXT: small-molecule microarray binders of probe aXIP, primary screen, biochemical, NeuroSMM set, 635/667 nm fluorescence (AID 1119);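 further: probe is the protein aXip251-270 applied at 1 µg/mL to compound-printed slides; binding of probe to printed compounds measured as 667 nm fluorescence plus signal to noise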
# TEST_CONTEXT: higher = more signal, called active from +8 up or from −8 down
// no unit string in output, number only

Before answering, review these 3 worked examples.
compound="N#Cc1ccc(C(O)C2C=CC3C(=O)NC(=O)C3N2Nc2ccccn2)cc1 (stereo not given)" reading=-0.483
compound="COc1ccc(C(O)C2C=CC3C(=O)N(C)C(=O)C3N2Nc2ccc([N+](=O)[O-])cc2[N+](=O)[O-])cc1OCc1ccccc1 (stereo not given)" reading=-0.213
compound="C=CCC(OC(C)=O)[C@@H]1[C@@H](N(Cc2ccc(-c3cccc(C(F)(F)F)c3)o2)C(=O)Cc2ccc(F)cc2)c2cc(OCCCO)ccc2N1C(=O)c1ccc2ccccc2c1 (stereo not given in full)" reading=-0.0127

Suppose we examine the compound COc1ccc([Si](C)(C)[C@H]2[C@H](CCn3cc([C@H](O)c4ccccc4)nn3)O[C@@]3(C(=O)N(c4ccccc4)c4ccccc43)[C@@H]2C)cc1 ; what composite Z-score value has been reported?
-0.112
